- experiment-summary: in vivo
- Parameters: species or system BALB/C nu/nu mice
- conditions-used: BALB/C nu/nu, mouse, iv, 40 pmol, total radioactivity, Kidneys uptake
Starred links: 1 amine or outer side, 2 acyl side, 3 side chain; linkers in the order of their positions; H or OH if unused. Non-standard residues stand in square brackets, D forms with d. Residues, ends and D or L forms follow the SMILES beside them. *: point of attachment. DOTAGA = O=C(O)CN1CCN(CC(=O)O)CCN(C(CCC(=O)*)C(=O)O)CCN(CC(=O)O)CC1; Sta = CC(C)C[C@H](N)[C@@H](O)CC(=O)O; X1 = O=C(CN1CCC(N[*:1])CC1)[*:2]; Sar = CNCC(=O)O

| molecule | tissue uptake at 4 h (%ID/g) |
| --- | --- |
| CC(C)C[C@H](NC(=O)C[C@H](O)[C@H](CC(C)C)NC(=O)[C@H](Cc1c[nH]cn1)NC(=O)CN(C)C(=O)[C@@H](NC(=O)[C@H](C)NC(=O)[C@H](Cc1c[nH]c2ccccc12)NC(=O)[C@H](CCC(N)=O)NC(=O)[C@@H](Cc1ccccc1)NC(=O)CN1CCC(NC(=O)COCCOCCNC(=O)CCC(C(=O)O)N2CCN(CC(=O)O)CCN(CC(=O)O)CCN(CC(=O)O)CC2)CC1)C(C)C)C(N)=O (some centres unmarked) [[^111In]In-AU-RM26-M2, metal not drawn] | 5 |
| CC(C)C[C@H](NC(=O)C[C@H](O)[C@H](CC(C)C)NC(=O)[C@H](Cc1c[nH]cn1)NC(=O)CN(C)C(=O)[C@@H](NC(=O)[C@H](C)NC(=O)[C@H](Cc1c[nH]c2ccccc12)NC(=O)[C@H](CCC(N)=O)NC(=O)[C@@H](Cc1ccccc1)NC(=O)CN1CCC(NC(=O)[C@H](CCCNC(=N)N)NC(=O)[C@H](CCCNC(=N)N)NC(=O)CCC(C(=O)O)N2CCN(CC(=O)O)CCN(CC(=O)O)CCN(CC(=O)O)CC2)CC1)C(C)C)C(N)=O (stereo partly drawn) [[^111In]In-AU-RM26-M4, metal not drawn] ({DOTAGA}-RR[X1][dF]QWAV[Sar]H[Sta]L-NH2) | 7 |

* * *

- experiment-summary: in vivo
- Set-up: species or system BALB/C nu/nu mice
- conditions-used: BALB/C nu/nu, mouse, iv, 40 pmol, total radioactivity, Bone uptake
Starred links: 1 amine or outer side, 2 acyl side, 3 side chain; linkers in the order of their positions; H or OH if unused. Non-standard residues stand in square brackets, D forms with d. Residues, ends and D or L forms follow the SMILES beside them. *: point of attachment. DOTAGA = O=C(O)CN1CCN(CC(=O)O)CCN(C(CCC(=O)*)C(=O)O)CCN(CC(=O)O)CC1; Sta = CC(C)C[C@H](N)[C@@H](O)CC(=O)O; X1 = O=C(CN1CCC(N[*:1])CC1)[*:2]; Sar = CNCC(=O)O
Catalogue of tissue uptake at 4 h readings, one per entry.
measurement-kind: tissue uptake at 4 h (%ID/g)

| compound | measurement-kind | reading |
| --- | --- | --- |
| CC(C)C[C@H](NC(=O)C[C@H](O)[C@H](CC(C)C)NC(=O)[C@H](Cc1c[nH]cn1)NC(=O)CN(C)C(=O)[C@@H](NC(=O)[C@H](C)NC(=O)[C@H](Cc1c[nH]c2ccccc12)NC(=O)[C@H](CCC(N)=O)NC(=O)[C@@H](Cc1ccccc1)NC(=O)COCCOCCNC(=O)CCC(C(=O)O)N1CCN(CC(=O)O)CCN(CC(=O)O)CCN(CC(=O)O)CC1)C(C)C)C(N)=O (stereo partly shown) [[^111In]In-AU-RM26-M1, [^111In]In-DOTAGA-PEG2-[Sar^11]RM26, metal not drawn, reference compound] | tissue uptake at 4 h | 0.05 |
| CC(C)C[C@H](NC(=O)C[C@H](O)[C@H](CC(C)C)NC(=O)[C@H](Cc1c[nH]cn1)NC(=O)CN(C)C(=O)[C@@H](NC(=O)[C@H](C)NC(=O)[C@H](Cc1c[nH]c2ccccc12)NC(=O)[C@H](CCC(N)=O)NC(=O)[C@@H](Cc1ccccc1)NC(=O)[C@H](CCCNC(=N)N)NC(=O)COCCOCCNC(=O)CCC(C(=O)O)N1CCN(CC(=O)O)CCN(CC(=O)O)CCN(CC(=O)O)CC1)C(C)C)C(N)=O (stereo partly shown) [[^111In]In-AU-RM26-M3, metal not drawn] | tissue uptake at 4 h | 0.06 |
| CC(C)C[C@H](NC(=O)C[C@H](O)[C@H](CC(C)C)NC(=O)[C@H](Cc1c[nH]cn1)NC(=O)CN(C)C(=O)[C@@H](NC(=O)[C@H](C)NC(=O)[C@H](Cc1c[nH]c2ccccc12)NC(=O)[C@H](CCC(N)=O)NC(=O)[C@@H](Cc1ccccc1)NC(=O)CN1CCC(NC(=O)COCCOCCNC(=O)CCC(C(=O)O)N2CCN(CC(=O)O)CCN(CC(=O)O)CCN(CC(=O)O)CC2)CC1)C(C)C)C(N)=O (stereo partly shown) [[^111In]In-AU-RM26-M2, metal not drawn] | tissue uptake at 4 h | 0.05 |
| CC(C)C[C@H](NC(=O)C[C@H](O)[C@H](CC(C)C)NC(=O)[C@H](Cc1c[nH]cn1)NC(=O)CN(C)C(=O)[C@@H](NC(=O)[C@H](C)NC(=O)[C@H](Cc1c[nH]c2ccccc12)NC(=O)[C@H](CCC(N)=O)NC(=O)[C@@H](Cc1ccccc1)NC(=O)CN1CCC(NC(=O)[C@H](CCCNC(=N)N)NC(=O)[C@H](CCCNC(=N)N)NC(=O)CCC(C(=O)O)N2CCN(CC(=O)O)CCN(CC(=O)O)CCN(CC(=O)O)CC2)CC1)C(C)C)C(N)=O (stereo partly drawn) [[^111In]In-AU-RM26-M4, metal not drawn] ({DOTAGA}-RR[X1][dF]QWAV[Sar]H[Sta]L-NH2) | tissue uptake at 4 h | 0.13 |

* * *

- experiment-summary: in vivo
- Design: species or system BALB/C nu/nu mice
- conditions-used: BALB/C nu/nu, mouse, iv, 40 pmol, total radioactivity, Small Int uptake
Starred links: 1 amine or outer side, 2 acyl side, 3 side chain; linkers in the order of their positions; H or OH if unused. Non-standard residues stand in square brackets, D forms with d. Residues, ends and D or L forms follow the SMILES beside them. *: point of attachment. DOTAGA = O=C(O)CN1CCN(CC(=O)O)CCN(C(CCC(=O)*)C(=O)O)CCN(CC(=O)O)CC1; Sta = CC(C)C[C@H](N)[C@@H](O)CC(=O)O; X1 = O=C(CN1CCC(N[*:1])CC1)[*:2]; Sar = CNCC(=O)O
Catalogue of tissue uptake at 4 h readings, one per entry.

| molecule | tissue uptake at 4 h (%ID/g) |
| --- | --- |
| CC(C)C[C@H](NC(=O)C[C@H](O)[C@H](CC(C)C)NC(=O)[C@H](Cc1c[nH]cn1)NC(=O)CN(C)C(=O)[C@@H](NC(=O)[C@H](C)NC(=O)[C@H](Cc1c[nH]c2ccccc12)NC(=O)[C@H](CCC(N)=O)NC(=O)[C@@H](Cc1ccccc1)NC(=O)COCCOCCNC(=O)CCC(C(=O)O)N1CCN(CC(=O)O)CCN(CC(=O)O)CCN(CC(=O)O)CC1)C(C)C)C(N)=O (stereo partly shown) [[^111In]In-AU-RM26-M1, [^111In]In-DOTAGA-PEG2-[Sar^11]RM26, metal not drawn, reference compound] | 0.1 |
| CC(C)C[C@H](NC(=O)C[C@H](O)[C@H](CC(C)C)NC(=O)[C@H](Cc1c[nH]cn1)NC(=O)CN(C)C(=O)[C@@H](NC(=O)[C@H](C)NC(=O)[C@H](Cc1c[nH]c2ccccc12)NC(=O)[C@H](CCC(N)=O)NC(=O)[C@@H](Cc1ccccc1)NC(=O)[C@H](CCCNC(=N)N)NC(=O)COCCOCCNC(=O)CCC(C(=O)O)N1CCN(CC(=O)O)CCN(CC(=O)O)CCN(CC(=O)O)CC1)C(C)C)C(N)=O (stereo partly shown) [[^111In]In-AU-RM26-M3, metal not drawn] | 0.08 |
| CC(C)C[C@H](NC(=O)C[C@H](O)[C@H](CC(C)C)NC(=O)[C@H](Cc1c[nH]cn1)NC(=O)CN(C)C(=O)[C@@H](NC(=O)[C@H](C)NC(=O)[C@H](Cc1c[nH]c2ccccc12)NC(=O)[C@H](CCC(N)=O)NC(=O)[C@@H](Cc1ccccc1)NC(=O)CN1CCC(NC(=O)COCCOCCNC(=O)CCC(C(=O)O)N2CCN(CC(=O)O)CCN(CC(=O)O)CCN(CC(=O)O)CC2)CC1)C(C)C)C(N)=O (stereo partly shown) [[^111In]In-AU-RM26-M2, metal not drawn] | 0.1 |
| CC(C)C[C@H](NC(=O)C[C@H](O)[C@H](CC(C)C)NC(=O)[C@H](Cc1c[nH]cn1)NC(=O)CN(C)C(=O)[C@@H](NC(=O)[C@H](C)NC(=O)[C@H](Cc1c[nH]c2ccccc12)NC(=O)[C@H](CCC(N)=O)NC(=O)[C@@H](Cc1ccccc1)NC(=O)CN1CCC(NC(=O)[C@H](CCCNC(=N)N)NC(=O)[C@H](CCCNC(=N)N)NC(=O)CCC(C(=O)O)N2CCN(CC(=O)O)CCN(CC(=O)O)CCN(CC(=O)O)CC2)CC1)C(C)C)C(N)=O (stereo partly drawn) [[^111In]In-AU-RM26-M4, metal not drawn] ({DOTAGA}-RR[X1][dF]QWAV[Sar]H[Sta]L-NH2) | 1.1 |

Sourced from paper PMC11054746
